- assay-target: T1, 4H94-AA
- T1 chain: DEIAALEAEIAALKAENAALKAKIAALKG
- method-summary: two-hybrid library CCmax;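 further: natural log of median RNA to DNA barcode read ratio; higher means stronger binding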
- assay-conditions: mean of both orientations
Assign Y to entries whose interaction score meets or exceeds -0.8; assign N to the rest.

// query Tell me whether interaction score is at least -0.8 here: DKIAALEAKIAALKAENAALEAKIAALEG [4H2389-AA]
// result Y

// query Now the same for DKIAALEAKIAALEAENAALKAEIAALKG [4H2330-AA]
// result Y

// query Record: DENAALEAEIAALKAKNAALEAKIAALKG [4H1142-AA]
// result N

// query Another binder to check: DKIAALEAKNAALEAEIAALEAKIAALKG [4H2438-AA]
// result Y

// query Would you kindly repeat that for DENAALKAKIAALKAENAALEAKIAALEG [4H1877-AA] ?
// result Y

// query Would you kindly repeat that for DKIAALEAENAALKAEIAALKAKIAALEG [4H2253-AA] ?
// result N
